# System: OVCAR-4 ovarian
# protocol.details: NCI tumour cell line growth inhibition, 48 h
Measured GI50 by item

Notebook: O=C(/C=C1\C(=O)N(Cc2ccccc2)c2ccccc21)c1ccc(OCCN2CCCCC2)cc1 , GI50 read as 2.99 µM

Notebook: CCCCCCCC(=O)SCC/C=C/[C@@H]1CC(=O)NCc2nc(cs2)C2=N[C@@](C)(CS2)C(=O)N[C@@H](C(C)C)C(=O)N1 , GI50 read as 0.0212 µM

====

# Tested on: NCI-H522 lung
# protocol.details: NCI tumour cell line growth inhibition, 48 h; in the data active means GI50 below about 0.43 µM; inactive means the rest
One label from this list, please: active, inactive

C[C@H]1CNC(=O)c2cnn3ccc(nc23)N[C@H](C)c2cc(F)ccc2O1 = inactive

Prompt line: For O=CN1N=C(c2cccc(Nc3ccnc4cc(Cl)ccc34)c2)CC1c1ccccc1 (stereo not drawn) , which call appears in the assay record?
Response line: active

Prompt line: For Cn1c(-c2ccccc2)c(/C=C/C2=[N+](C)c3ccccc3C2(C)C)c2ccccc21 , which call appears in the assay record?
Response line: inactive

====

# Test system: MDA-MB-231 breast
# protocol.details: NCI tumour cell line growth inhibition, 48 h
Binary call on TGI: fulfilled from 20 µM upward, not fulfilled beneath that.

Reference set (3 entries):
CCCOP(=O)(OCCC)OC(C(F)(F)F)C(F)(F)F = fulfilled
COc1cc(Cc2cnc(N)nc2N)cc(OC)c1OCCCNc1ccc([N+](=O)[O-])cc1 = fulfilled
O=C1CC(=O)NC(=NN2C(=O)CSC2C(=O)c2ccco2)N1 (configuration not stated) = fulfilled

Prompt line: State whether the measured TGI reaches 20 µM, counting equality as reaching it, for COC(=O)c1c2c(c(C)[n+]([O-])c1C)C(=O)C=C(NCc1cccc(Cl)c1)C2=O
Response line: not fulfilled

====

# System: SF-268 CNS
# protocol.details: NCI tumour cell line growth inhibition, 48 h
Measured GI50 by item

# annotated cases, reported GI50 shown
CC([C@H]1CC=C2C3CCC4=C[C@@H](N(C)C)CC[C@]4(C)C3CC[C@@]21C)N(C)C (stereo partly specified) = 1.98 µM
O=C(Nc1ccc(F)cc1)Nc1ccc(Br)c(C(F)(F)F)c1 = 2.97 µM
ClCc1ccccc1Cn1cnc2c(Cl)ncnc21 = 3.24 µM
Cn1c(-c2ccccc2)c(/C=C/C2=[N+](C)c3ccccc3C2(C)C)c2ccccc21 = 1.32 µM
CC(C)c1cccc(O)c(=O)c1 = 1.55 µg/mL

Please find the next compound below.
Notebook: C=C1C(=O)O[C@H]2[C@H]1CC/C(COC(=O)OC/C1=C/CC[C@@]3(C)O[C@H]3[C@H]3OC(=O)[C@@H](CN(C)C)[C@@H]3CC1)=C\CC[C@@]1(C)O[C@@H]21 , GI50 read as 3.07 µM

====

# Test system: IGROV1 ovarian
# protocol.details: NCI tumour cell line growth inhibition, 48 h
endpoint: TGI (µM)
Give the quantity in µM, number only.

# annotated cases, reported TGI shown
CCCCCCCC/C=C1\CCC(CN2CCOCC2)C1=O (stereo not drawn) = 21
CCCCCCCCCCCCCC[n+]1ccc(C(N)=O)cc1 = 2.91
CCOC(=O)/C=C(\C(=O)OCC)n1cc(Cl)c(=O)n(CC(=O)OCC)c1=O = 25.9

Notebook: COC(=O)c1c2c(c(C)[n+]([O-])c1C)C(=O)C=C(NCc1cccc(Cl)c1)C2=O , TGI read as 1.09

Notebook: C[C@H]1CNC(=O)c2cnn3ccc(nc23)N[C@H](C)c2cc(F)ccc2O1 , TGI read as 1.92

Where do these numbers come from? They come from PubChem BioAssay (NCI).
